Data origin: the supplement of paper PMC4466140

Target: SpSla1-D3
Assay: SPOT peptide array binding signal intensity (averaged, normalized) (arbitrary units (background-subtracted, floor 0; scale differs between SH3 domains)); higher = stronger binding of the SH3 domain to the peptide
Classify as follows. Reported SPOT peptide array binding signal intensity greater than or equal to 10: Fulfilled. Reported SPOT peptide array binding signal intensity below: Not fulfilled.

binder | group.label
KTITLEVESSDTIDN | Not fulfilled
QHQQRQPKRPKRYSL | Not fulfilled
KKAPPPVVKPKPRNF | Fulfilled
TKIRRRPQQPLTDFT | Not fulfilled
EVTPKVPERPSRRKT | Not fulfilled
QTMRQAPKRPDADVA | Fulfilled
GQYRRTIVIPRRFFT | Fulfilled
KMSRSPPRPPSLKII | Fulfilled

API: the following record is the query input.
State whether the measured SPOT peptide array binding signal intensity reaches 10, counting equality as reaching it, for "NMLSRPRLAKLPSIR"
Fulfilled
